Hey, just so you know, these numbers are from PubChem BioAssay AID220.

# Tested on: CD8F1 mice, subcutaneous mammary adenocarcinoma, T/C%
# experiment-description: NCI In Vivo Anticancer Drug Screen. Data for tumor model Mammary Adenocarcinoma CD8F1 (subcutaneous) in CD8F1
# condition-description: endpoint: median tumor weight change; dose: 500.0 mg/kg/injection; schedule: Q01DX001 (ip); vehicle: suspension in saline; higher = larger tumour
Inconclusive results are not listed.
measure: T/C

COC(=O)Nc1nc2ccc(C3(c4ccc(F)cc4)OCCO3)cc2[nH]1
153 % of control
Nc1nc2n[nH]nc2c(=O)[nH]1
45 % of control
CCCCNC(C)C1(O)Cc2c(O)c3c(c(O)c2C(OC2CC(N)C(O)C(C)O2)C1)C(=O)c1c(OC)cccc1C3=O (centres undefined)
15 % of control

Consider the record given below.
Recorded T/C of `N=C(N)SCc1cccc2c(=O)cc(-c3ccccc3)oc12` , please.
106 % of control

###

# System: CD8F1 mice, subcutaneous mammary adenocarcinoma, T/C%
# experiment-description: NCI In Vivo Anticancer Drug Screen. Data for tumor model Mammary Adenocarcinoma CD8F1 (subcutaneous) in CD8F1
# condition-description: endpoint: median tumor weight change; dose: 250.0 mg/kg/injection; schedule: Q01DX001 (ip); vehicle: saline; higher = larger tumour
Records with an inconclusive call do not appear.
Some molecules, each annotated with its measured T/C.

CC(=O)OCC1OC(n2ncc(=O)[nH]c2=O)C(OC(C)=O)C1OC(C)=O (stereo not drawn)
111 % of control
C=C(NC(=O)C(=C)NC(=O)c1csc(C2=NC3c4csc(n4)C4NC(=O)c5csc(n5)C(C(C)(O)C(C)O)NC(=O)C5CSC(=N5)/C(=C/C)NC(=O)C(C(C)O)NC(=O)c5csc(n5)C3(CC2)NC(=O)C(C)NC(=O)C(=C)NC(=O)C(=C)NC(=O)C(C(C)C)NC2C=Cc3c(C(C)O)cc(nc3C2O)C(=O)OC4C)n1)C(N)=O (stereo not drawn)
106 % of control

Please look up its T/C: Nc1ncn(C2OC(CO)C(O)C2O)c(=O)n1 (stereo not drawn)
86 % of control

Moving on to the next molecule: C=C(C)/C([O-])=N/[N+](C)(C)CC(O)CCCCCCCCCCCC (stereo not drawn)
111 % of control

Please answer likewise for `N=C1CCCS1`
89 % of control

For `CN(CCN(C)C(=O)CCOS(C)(=O)=O)C(=O)CCOS(C)(=O)=O` then?
51 % of control

Quick one: `c1csc(C[N+]23CN4CN(CN(C4)C2)C3)c1`
80 % of control

Again, but for `NC(N)=NOCC[C@@H](N)C(=O)O`
83 % of control

###

# Tested on: CD8F1 mice, subcutaneous mammary adenocarcinoma, T/C%
# experiment-description: NCI In Vivo Anticancer Drug Screen. Data for tumor model Mammary Adenocarcinoma CD8F1 (subcutaneous) in CD8F1
# condition-description: endpoint: median tumor weight (est.); dose: 200.0 mg/kg/injection; schedule: Q07DX005 (ip); vehicle: Klucel (hydroxypropylcellulose) (HPC); higher = larger tumour
Records with an inconclusive call do not appear.
Quick reference: T/C of the listed items.

Here is how some compounds turned out for T/C.
Cc1ccc2c(ccc(CC(=S)[S-])[n+]2C)c1
32 % of control
CC1(C)CC(=O)C(CSC(=O)c2ccccc2)C(=O)C1
57 % of control
[I][Hg][CH2]C1OCCOC1[CH2][Hg][I] (stereo unspecified)
52 % of control
CN(C)/N=N/c1nc[nH]c1C(N)=O
26 % of control
Cn1cnc([N+](=O)[O-])c1SCC(=O)O
107 % of control

// query T/C value for entry `COc1cc(OC)c(OC)cc1/C=C\c1ccnc2ccccc12`
78 % of control

Next compound: `CC(C)(C)C1CCCCC1`
73 % of control

Moving on to the next compound: `COc1c(CNC(=O)CCl)cc2[nH]c(C)cc2c1CNC(=O)CCl`
57 % of control

Subsequent entry: OC(CBr)C(O)C(O)C(O)CBr (stereo unspecified)
2 % of control

Also need `CS(=O)(=O)OCCCCOS(C)(=O)=O` , thanks.
8 % of control

###

# Tested on: CD8F1 mice, subcutaneous mammary adenocarcinoma, T/C%
# experiment-description: NCI In Vivo Anticancer Drug Screen. Data for tumor model Mammary Adenocarcinoma CD8F1 (subcutaneous) in CD8F1
# condition-description: endpoint: median tumor weight (est.); dose: 400.0 mg/kg/injection; schedule: Q07DX005 (ip); vehicle: Klucel (hydroxypropylcellulose) (HPC); higher = larger tumour
Inconclusive results are not listed.
measure: T/C

Take a look at these entries with their results.
C=C(NC(=O)C(=C)NC(=O)c1csc(C2=NC3c4csc(n4)C4NC(=O)c5csc(n5)C(C(C)(O)C(C)O)NC(=O)C5CSC(=N5)/C(=C/C)NC(=O)C(C(C)O)NC(=O)c5csc(n5)C3(CC2)NC(=O)C(C)NC(=O)C(=C)NC(=O)C(C)NC(=O)C(C(C)CC)NC2C=Cc3c(C(C)O)cc(nc3C2O)C(=O)OC4C)n1)C(N)=O (stereo not drawn)
90 % of control
CC1C=NNC1=O (stereo not drawn)
23 % of control

Under CD8F1 mice, subcutaneous mammary adenocarcinoma, T/C%: T/C value of Nc1nc(F)nc2c1ncn2C1OC(COP(=O)(O)O)C(O)C1O (stereo not drawn) ?
34 % of control

###

# Tested on: CD8F1 mice, subcutaneous mammary adenocarcinoma, T/C%
# experiment-description: NCI In Vivo Anticancer Drug Screen. Data for tumor model Mammary Adenocarcinoma CD8F1 (subcutaneous) in CD8F1
# condition-description: endpoint: median tumor weight change; dose: 125.0 mg/kg/injection; schedule: Q01DX001 (ip); vehicle: saline with Tween-80; higher = larger tumour
Results filed as inconclusive are left out.
measure: T/C

COc1cc(OC)c(NC(=O)ON2C(=O)c3ccccc3C2=O)cc1Cl
92 % of control
CCc1nc(N)nc(N)c1-c1ccc(Cl)c(N=[N+]=[N-])c1
78 % of control
CO[C@@H]1[C@H](O)CC[C@]2(CO2)[C@H]1[C@@]1(C)O[C@@H]1CC=C(C)C
106 % of control
CC(=O)Nc1ccc(Nc2ccc(C(=C3C=CC(=[N+](C)CCC#N)C=C3)c3ccc(N(C)CCC#N)cc3)cc2)cc1
67 % of control
Cc1ccc2c(c1)N=C(Nc1ccccc1)N=S2(C)=O (stereo unspecified)
93 % of control
NCC1CCC(C(=O)O)CC1 (stereo unspecified)
63 % of control

Using the record for `Nc1nnc[se]1` , report its T/C.
94 % of control

Same question, `O=[N+]([O-])c1ccc(N2CCOCC2)c2c1no[n+]2[O-]` this time
114 % of control

Next: CC1(C)CC2(C)OC2C2(C1)N=NC(=Nc1ccccc1)O2 (stereo unspecified)
78 % of control

# iterate: `Nc1ccc(S(=O)(=O)c2ccc(N)cc2)cc1`
87 % of control

Also need `CC1=C(/C=C/C(C)=C/C=C/C(C)=C/C=O)C(C)(C)CCC1` , thanks.
74 % of control

###

# System: CD8F1 mice, subcutaneous mammary adenocarcinoma, T/C%
# experiment-description: NCI In Vivo Anticancer Drug Screen. Data for tumor model Mammary Adenocarcinoma CD8F1 (subcutaneous) in CD8F1
# condition-description: endpoint: median tumor weight change; dose: 62.5 mg/kg/injection; schedule: Q01DX001 (ip); vehicle: Klucel (hydroxypropylcellulose) (HPC); higher = larger tumour
Inconclusive results are not listed.
Items are presented alongside their recorded T/C.

Use these answered entries as a reference point.
Cn1cnc([N+](=O)[O-])c1SCC(=O)O
75 % of control
CC(=O)Nc1ccc(/C=N/NC(N)=S)cc1
84 % of control
COc1ccc2c(c1)C(O)(CN)CCCCC(OC)CCCC2 (stereo not drawn)
121 % of control
CN1CCc2c(c3ccccc3c3ccccc23)C1
74 % of control
Cc1ccc(S(=O)(=O)NC(=O)C2C(=O)CC3(CCCCC3)CC2=O)cc1
101 % of control

// fetch CD8F1 mice, subcutaneous mammary adenocarcinoma, T/C% T/C for `O=C(CC(=O)C(F)(F)F)c1csc2ccccc12`
39 % of control

Consider next the compound `C/C(=N\N=C(/[Se])N1CC2CCC(CC2)C1)c1ccccn1` in the same way.
122 % of control

Query `CCCCCNc1ncnc2c(C)[nH]nc12` next
101 % of control

###

# Test system: CD8F1 mice, subcutaneous mammary adenocarcinoma, T/C%
# experiment-description: NCI In Vivo Anticancer Drug Screen. Data for tumor model Mammary Adenocarcinoma CD8F1 (subcutaneous) in CD8F1
# condition-description: endpoint: median tumor weight (est.); dose: 25.0 mg/kg/injection; schedule: Q07DX005 (ip); vehicle: distilled water + Tween-80; higher = larger tumour
Records with an inconclusive call do not appear.
This section presents compounds with their documented T/C values.

NC(Cc1ccc(N(CCCl)Cc2ccccc2)cc1)C(=O)O (centres undefined)
79 % of control
CC(C)NC(=O)OCc1c(COC(=O)NC(C)C)c(-c2ccc(Cl)c(Cl)c2)n2c1CCC2
120 % of control
CCOC(=O)c1ccc(NC(=O)Nc2nncs2)cc1
259 % of control

From here, focus on the item given below.
Given the compound COc1cccc2c1C(=O)c1c(O)c3c(c(O)c1C2=O)C[C@@](O)(C(=O)CO)C[C@@H]3OC1CC(OC(C)=O)C(OC(C)=O)C(C)O1 (some centres undefined) , what is its reported T/C?
13 % of control
